target: C-C motif chemokine 2 (Homo sapiens); assay: Inhibition of MCP-1 in LPS-stimulated human whole blood incubate for 24 hrs by immuno assay
Sequence (P13500 whole entry): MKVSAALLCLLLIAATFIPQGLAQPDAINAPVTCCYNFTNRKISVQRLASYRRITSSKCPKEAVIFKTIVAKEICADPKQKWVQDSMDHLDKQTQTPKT
pIC50: −log10 of the molar value.
Give 1 when the value for pIC50 is at least 7. Give -1 when it is less.

# compound, class assignment
measured = [
    ("CCS(=O)(=O)c1ccc2c(c1)C(c1cnn(C)c1)=CN(C)C(=O)[C@@H]2C", 1),
]

Below: the item to evaluate.
Prompt: Does pIC50 meet or surpass 7 for C[C@H]1C(=O)N(C)C=Cc2cc(CN3CCOCC3)ccc21 ?
Response: -1

====

target: C-C motif chemokine 2 (Homo sapiens); test: Inhibition of MCP-1 in LPS-stimulated human whole blood incubate for 24 hrs by immuno assay
Exercise: for every item that follows, state its recorded IC50.
One number for each entry, in nM.

Examples from the recorded data:
# compound, unit abbreviation, IC50
measured = [
    ("CCS(=O)(=O)c1ccc2c(c1)C(C)=CN(C)C(=O)[C@@H]2C", "nM", 158),
    ("CCS(=O)(=O)c1ccc2c(c1)C(c1ccccc1)=CN(C)C(=O)C2C (racemic)", "nM", 1580),
]

State recorded IC50 for all listed compounds.
1. C[C@H]1C(=O)N(C)C=C(c2cnn(C)c2)c2cc(C(CO)CO)ccc21
2. CC1C(=O)N(C)C=Cc2cc(OCC(C)(C)O)ccc21 (racemic)
3. C[C@H]1C(=O)N(C)C=C(c2cn[nH]c2)c2cc([C@@H](O)CO)ccc21

Response:
1: 31.6; 2: 631; 3: 31.6
